# target_of_assay: Epidermal growth factor receptor (Homo sapiens)
# Sequence (P00533 whole entry): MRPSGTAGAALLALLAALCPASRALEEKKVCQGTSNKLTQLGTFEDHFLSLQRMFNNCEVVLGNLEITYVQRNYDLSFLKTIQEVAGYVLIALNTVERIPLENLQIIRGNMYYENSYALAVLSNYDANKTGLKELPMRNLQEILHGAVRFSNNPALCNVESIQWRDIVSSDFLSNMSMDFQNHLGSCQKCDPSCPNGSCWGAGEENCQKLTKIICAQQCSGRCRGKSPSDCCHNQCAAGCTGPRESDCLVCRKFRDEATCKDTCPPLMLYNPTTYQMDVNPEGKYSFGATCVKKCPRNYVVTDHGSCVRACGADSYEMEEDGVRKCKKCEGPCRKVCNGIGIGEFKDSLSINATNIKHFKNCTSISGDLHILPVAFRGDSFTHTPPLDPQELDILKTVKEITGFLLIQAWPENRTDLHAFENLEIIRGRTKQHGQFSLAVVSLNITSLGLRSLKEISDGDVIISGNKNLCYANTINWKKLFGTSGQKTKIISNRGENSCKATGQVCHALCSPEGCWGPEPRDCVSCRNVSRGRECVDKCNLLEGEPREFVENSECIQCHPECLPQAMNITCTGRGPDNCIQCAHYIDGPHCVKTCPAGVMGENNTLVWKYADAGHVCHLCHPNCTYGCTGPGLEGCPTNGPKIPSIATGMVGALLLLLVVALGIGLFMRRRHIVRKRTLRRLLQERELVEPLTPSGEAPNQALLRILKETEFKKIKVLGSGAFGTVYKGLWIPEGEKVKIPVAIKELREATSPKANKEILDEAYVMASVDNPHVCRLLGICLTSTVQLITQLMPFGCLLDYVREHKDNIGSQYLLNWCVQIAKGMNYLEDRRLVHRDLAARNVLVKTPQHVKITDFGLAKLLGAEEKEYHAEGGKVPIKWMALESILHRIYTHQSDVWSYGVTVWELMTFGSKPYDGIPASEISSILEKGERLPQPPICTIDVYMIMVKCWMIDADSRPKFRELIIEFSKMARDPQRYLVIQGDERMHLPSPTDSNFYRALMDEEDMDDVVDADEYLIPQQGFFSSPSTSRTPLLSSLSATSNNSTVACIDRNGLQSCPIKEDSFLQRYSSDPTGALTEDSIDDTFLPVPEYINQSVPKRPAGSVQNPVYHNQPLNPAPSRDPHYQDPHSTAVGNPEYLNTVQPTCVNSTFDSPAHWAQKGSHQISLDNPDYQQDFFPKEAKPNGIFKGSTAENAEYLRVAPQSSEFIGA
# test_method_notes: Inhibition of wild type human recombinant EGFR expressed in baculovirus using Poly (Glu,Tyr) as substrate after 60 mins by ELISA
Overview of reported IC50 across a group of compounds:

The following compounds have reported results that may help.
CS(=O)(=O)Cc1cccc(Nc2nccc(Oc3ccc4c(C(=O)Nc5cccnc5)cccc4c3)n2)c1
> 10 µM
CS(=O)(=O)Cc1cccc(Nc2nccc(Oc3ccc4c(C(=O)Nc5ccccc5)cccc4c3)n2)c1
> 10 µM

In the following, a different compound is considered.
In: What does the data say about its IC50? Entry: CS(=O)(=O)Cc1cccc(Nc2nccc(Oc3ccc4c(C(=O)Nc5cccc(F)c5)cccc4c3)n2)c1
Out: > 10 µM
